Would you kindly list inhibition of growth at 10 µM for each of these compounds?
# ASSAY SUMMARY: Cytotoxicity against human SW620 cells assessed as growth inhibition at 10 uM after 48 hrs by SRB assay
# Format: functional
# CONDITIONS USED: SW-620, 48 h, read-out: GI
One number for each entry, in %.

Sample records with inhibition of growth at 10 µM:
COMPOUND: C=C1CC[C@@H]2[C@](C)(COC(C)=O)[C@H](OC(C)=O)CC[C@@]2(C)[C@@H]1C/C=C1/C(=O)OC[C@H]1OC(C)=O
inhibition of growth at 10 µM [%]: 21.9
--
COMPOUND: C=C1CC[C@@H]2[C@](C)(COC(C)=O)[C@H](OC(C)=O)CC[C@@]2(C)[C@@H]1CC(NCCCCCCCC)C1=CCOC1=O (mixture of isomers)
inhibition of growth at 10 µM [%]: 27.6
--
COMPOUND: C=C1CC[C@@H]2[C@](C)(COC(C)=O)[C@H](OC(C)=O)CC[C@@]2(C)[C@@H]1CC(NCc1ccc(F)cc1)C1=CCOC1=O (mixture of isomers)
inhibition of growth at 10 µM [%]: 68
--
COMPOUND: C=C1CC[C@@H]2[C@](C)(COC(C)=O)[C@H](OC(C)=O)CC[C@@]2(C)[C@@H]1CC(NCc1ccccc1)C1=CCOC1=O (mixture of isomers)
inhibition of growth at 10 µM [%]: 52.7

Each compound below has a recorded value; state its inhibition of growth at 10 µM.
1. C=C1CC[C@@H]2[C@](C)(CO)[C@H](O)CC[C@@]2(C)[C@@H]1C/C=C1/C(=O)OC[C@H]1O [ANDROGRAPHOLIDE]
2. C=C1CC[C@@H]2[C@](C)(COC(C)=O)[C@H](OC(C)=O)CC[C@@]2(C)[C@@H]1CC(NC1CCCC1)C1=CCOC1=O (stereo partly drawn)
3. C=C1CC[C@@H]2[C@](C)(COC(C)=O)[C@H](OC(C)=O)CC[C@@]2(C)[C@@H]1CC(NCc1cccc(Cl)c1)C1=CCOC1=O (mixture of isomers)
4. C=C1CC[C@@H]2[C@](C)(COC(C)=O)[C@H](OC(C)=O)CC[C@@]2(C)[C@@H]1CC(NCCCC)C1=CCOC1=O (mixture of isomers)

[55.7, 32.5, 61.7, 4.99]

###

# ASSAY SUMMARY: Cytotoxicity against human SNB75 cells assessed as growth inhibition at 10 uM after 48 hrs by SRB assay
# Type: functional
# CONDITIONS USED: SNB-75, 48 h, read-out: GI
Lab note: anything with inhibition of growth at 10 µM at or over 40% counts as 1; the rest go in 0.

These recorded examples may help you get a feel for the data.
MOLECULE: C=C1CC[C@@H]2[C@](C)(CO)[C@H](O)CC[C@@]2(C)[C@@H]1C/C=C1/C(=O)OC[C@H]1O [ANDROGRAPHOLIDE]
GROUP: 0
//
MOLECULE: C=C1CC[C@@H]2[C@](C)(COC(C)=O)[C@H](OC(C)=O)CC[C@@]2(C)[C@@H]1C/C=C1/C(=O)OC[C@H]1OC(C)=O
GROUP: 1
//
MOLECULE: C=C1CC[C@@H]2[C@](C)(COC(C)=O)[C@H](OC(C)=O)CC[C@@]2(C)[C@@H]1CC(NCCCCCCCC)C1=CCOC1=O (mixture of isomers)
GROUP: 0
//
MOLECULE: C=C1CC[C@@H]2[C@](C)(COC(C)=O)[C@H](OC(C)=O)CC[C@@]2(C)[C@@H]1CC(NCc1ccc(F)cc1)C1=CCOC1=O (mixture of isomers)
GROUP: 1

As a next step, examine the molecule that follows.
Decide: inhibition of growth at 10 µM of C=C1CC[C@@H]2[C@](C)(COC(C)=O)[C@H](OC(C)=O)CC[C@@]2(C)[C@@H]1CC(NCc1ccccc1)C1=CCOC1=O (mixture of isomers) >= 40%?
0

###

# ASSAY SUMMARY: Cytotoxicity against human LOXIMVI cells assessed as growth level at 10 uM after 48 hrs by SRB assay
# Format: functional, LOX IMVI
I'd appreciate it if you marked entries Criterion met when Activity is lower than 50% and Criterion not met when it is not.

MOLECULE: C=C1CC[C@@H]2[C@](C)(COC(C)=O)[C@H](OC(C)=O)CC[C@@]2(C)[C@@H]1C/C=C1/C(=O)OC[C@H]1OC(C)=O
GROUP: Criterion met

Strictly below 50% in Activity? C=C1CC[C@@H]2[C@](C)(COC(C)=O)[C@H](OC(C)=O)CC[C@@]2(C)[C@@H]1CC(NCCCCCCCCCCCCCCCCCC)C1=CCOC1=O (mixture of isomers)
Criterion not met

Does the reported Activity of C=C1CC[C@@H]2[C@](C)(COC(C)=O)[C@H](OC(C)=O)CC[C@@]2(C)[C@@H]1CC(NC1CC1)C1=CCOC1=O (mixture of isomers) stay below 50%?
Criterion not met

###

# Tested on: NCI-H23
# ASSAY SUMMARY: Cytotoxicity against human NCI-H23 cells assessed as growth level at 10 uM after 48 hrs by SRB assay
# Type: functional
METRIC NAME: Activity (%)
Answers are plain numbers, in %.

COMPOUND: C=C1CC[C@@H]2[C@](C)(COC(C)=O)[C@H](OC(C)=O)CC[C@@]2(C)[C@@H]1CC(NCc1cccc(Cl)c1)C1=CCOC1=O (mixture of isomers)
UNIT DESCRIPTOR: %
REPORTED VALUE: 52.71
--
COMPOUND: C=C1CC[C@@H]2[C@](C)(COC(C)=O)[C@H](OC(C)=O)CC[C@@]2(C)[C@@H]1CC(NC1CC1)C1=CCOC1=O (mixture of isomers)
UNIT DESCRIPTOR: %
REPORTED VALUE: 98.94
--
COMPOUND: C=C1CC[C@@H]2[C@](C)(CO)[C@H](O)CC[C@@]2(C)[C@@H]1C/C=C1/C(=O)OC[C@H]1O [ANDROGRAPHOLIDE]
UNIT DESCRIPTOR: %
REPORTED VALUE: 97.89
--
COMPOUND: C=C1CC[C@@H]2[C@](C)(COC(C)=O)[C@H](OC(C)=O)CC[C@@]2(C)[C@@H]1CC(Nc1ccc(S(=O)(=O)NC(C)=O)cc1)C1=CCOC1=O (mixture of isomers)
UNIT DESCRIPTOR: %
REPORTED VALUE: 7.36

// each listed compound needs a value for Activity
1. C=C1CC[C@@H]2[C@](C)(COC(C)=O)[C@H](OC(C)=O)CC[C@@]2(C)[C@@H]1CC(NCCCC)C1=CCOC1=O (mixture of isomers)
2. C=C1CC[C@@H]2[C@](C)(COC(C)=O)[C@H](OC(C)=O)CC[C@@]2(C)[C@@H]1CC(NCCCCCCCC)C1=CCOC1=O (mixture of isomers)
3. C=C1CC[C@@H]2[C@](C)(COC(C)=O)[C@H](OC(C)=O)CC[C@@]2(C)[C@@H]1C/C=C1/C(=O)OC[C@H]1OC(C)=O
4. C=C1CC[C@@H]2[C@](C)(COC(C)=O)[C@H](OC(C)=O)CC[C@@]2(C)[C@@H]1CC(NCCCCCCCCCCCCCCCCCC)C1=CCOC1=O (mixture of isomers)

[89.71, 70.76, 80.92, 100.06]

###

Please respond with reported inhibition of growth at 10 µM for every item in the list.
# ASSAY SUMMARY: Cytotoxicity against human TK10 cells assessed as growth inhibition at 10 uM after 48 hrs by SRB assay
# Assay type: functional
# CONDITIONS USED: TK-10, 48 h, read-out: GI
Answers are plain numbers, in %.

Solved cases below.
COMPOUND: C=C1CC[C@@H]2[C@](C)(COC(C)=O)[C@H](OC(C)=O)CC[C@@]2(C)[C@@H]1CC(NCc1ccc(F)cc1)C1=CCOC1=O (mixture of isomers)
REPORTED VALUE: 33.4
--
COMPOUND: C=C1CC[C@@H]2[C@](C)(COC(C)=O)[C@H](OC(C)=O)CC[C@@]2(C)[C@@H]1CC(NCCCCCCCC)C1=CCOC1=O (mixture of isomers)
REPORTED VALUE: 17.3
--
COMPOUND: C=C1CC[C@@H]2[C@](C)(COC(C)=O)[C@H](OC(C)=O)CC[C@@]2(C)[C@@H]1CC(NCCCC)C1=CCOC1=O (mixture of isomers)
REPORTED VALUE: 0.94
--
COMPOUND: C=C1CC[C@@H]2[C@](C)(COC(C)=O)[C@H](OC(C)=O)CC[C@@]2(C)[C@@H]1C/C=C1/C(=O)OC[C@H]1OC(C)=O
REPORTED VALUE: 83.1
--
COMPOUND: C=C1CC[C@@H]2[C@](C)(COC(C)=O)[C@H](OC(C)=O)CC[C@@]2(C)[C@@H]1CC(NC1CCCC1)C1=CCOC1=O (some centres not stated)
REPORTED VALUE: 12.9
--
COMPOUND: C=C1CC[C@@H]2[C@](C)(COC(C)=O)[C@H](OC(C)=O)CC[C@@]2(C)[C@@H]1CC(NCc1cccc(Cl)c1)C1=CCOC1=O (mixture of isomers)
REPORTED VALUE: 36.7

Now, please, on to the next compound.
Kindly note the recorded inhibition of growth at 10 µM for C=C1CC[C@@H]2[C@](C)(CO)[C@H](O)CC[C@@]2(C)[C@@H]1C/C=C1/C(=O)OC[C@H]1O [ANDROGRAPHOLIDE] , which is 2.51
